Tested on: CCRF-CEM leukemia
Measurement notes: NCI-60 one-dose screen, 48 h (100 = growth as untreated, 0 = no growth, -100 = all killed)
Test context: 10 µM unless noted
The panel holds about 83,000 compounds, 20% with a hit somewhere; the sample as a whole holds those more often.
// growth lookup, one value per entry
# output: bare number, implied unit %

Entry O=C1NC(=O)/C(=C/c2ccc3nccc(-c4ccncc4)c3c2)S1 — recorded growth = 0.0384

***
The recorded growth for CCCCCCCC(=O)SCC/C=C/[C@@H]1CC(=O)NCc2cccc(n2)C2=N[C@@](C)(CS2)C(=O)N[C@@H](C(C)C)C(=O)N1 is 44.9

growth reading for Cc1ccc(F)c(NC(=O)Nc2ccc(-c3cccc4[nH]nc(N)c34)cc2)c1 : 11.4

Measured growth, O=C1C=CC2(NN=C(c3ccccc3)N2c2cccc(Cl)c2)C(Cl)=C1 (stereo not given) : 41.6

Quick note, growth for Nc1nc(Nc2ccccc2)c(C=Nc2ccccc2)c(=O)[nH]1 landed at 92.1

----------
Tested on: HOP-62 NSCLC
Measurement notes: NCI-60 one-dose screen, 48 h
Test context: 10 µM unless noted
The panel holds about 83,000 compounds, 20% with a hit somewhere; the sample as a whole holds those more often. The source made the active and inactive calls. How the source made its calls: active means growth percent below 10; inactive means the rest.
One label from this list, please: active, inactive

Past entries and their recorded results:
INPUT: What classification did Cc1cc(N2CCOCC2)nc(N(CCNc2ccnc3cc(Cl)ccc23)Cc2cccs2)n1 end up with in this test?
OUTPUT: inactive

INPUT: Record request — test call for Cc1cccc(Cl)c1NC(=O)c1cnc(Nc2cc(N3CCOCC3)cc(N3CCOCC3)c2)s1
OUTPUT: active

INPUT: Short answer needed: outcome of this test for [2H]C1([2H])[C@H](C)O[C@H](C)C([2H])([2H])N1c1ccc(NC(=O)c2cccc(-c3ccc(OC(F)(F)F)cc3)c2C)cn1 ?
OUTPUT: inactive

INPUT: Hi team, can someone confirm the assay call for O=C(Cc1ccc(/C=C/C(=O)c2ncc[nH]2)cc1)Nc1ccc(S(F)(F)(F)(F)F)cc1 ?
OUTPUT: inactive

INPUT: Hi, do you know how COc1ccc2c(c1)cn1c3ccc(O)cc3nc(N)c21 came out in this test?
OUTPUT: inactive

INPUT: Write down the call the test reported for this compound. Item: CN1CCN(c2ccc(OC(F)(F)F)c(Nc3ncc4c(n3)-c3c(c(C(N)=O)nn3CCO)CC4)c2)CC1
OUTPUT: active

INPUT: Answer briefly: the call reported for COc1cc2cc(NCc3ccc(Cl)cc3)nc(C)c2cc1OC in this assay.
OUTPUT: inactive

INPUT: Which outcome did this test record for the compound C=CCCCOC1[C@H](OCc2ccccc2)C(OCc2ccccc2)C(OC)O[C@@H]1CNC(=O)c1cccc(I)c1 (stereo not given in full) ?
OUTPUT: inactive

INPUT: What outcome does the record of this test show for CC(=O)c1cnc2ccc(-c3cc(Cl)c(O)c(Cl)c3)nc2c1NC1CCC(CN(C)C)CC1 (stereo not given) ?
OUTPUT: active

INPUT: Status in this test for Cn1cnc(-c2cc3nccc(Oc4ccc(NC(=S)NC(=O)Cc5ccccc5)cc4F)c3s2)c1 ?
OUTPUT: inactive

Others:
INPUT: What outcome does the record of this test show for CCN1CCN(c2cc(C)nc(N(CCCNc3ccnc4cc(Cl)ccc34)Cc3cccs3)n2)CC1 ?
OUTPUT: active

INPUT: What was the test verdict on COc1cc(NCCCN)c2ncccc2c1 ?
OUTPUT: inactive

INPUT: Can you look up the reported call for CCOc1ccc(N=C(C)Nc2ccc(OCC)cc2)cc1 for me?
OUTPUT: inactive

INPUT: Which outcome was assigned to CN1CC[C@@H](c2c(O)cc(O)c3c(=O)cc(-c4ccccc4Cl)oc23)[C@@H]1CO in this test?
OUTPUT: active
